- ASSAY_INFO: NCI Yeast Anticancer Drug Screen. Data for the wt2 strain (AID 169);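 also: 0% = growth of vehicle-treated yeast cultures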
- STUDY_CONDITIONS: S. cerevisiae wt2 strain growth inhibition; at 11.0 µM; stronger effect = higher value
The panel holds about 79,000 compounds, 15% with a hit somewhere; the sample as a whole holds those more often. The source made the active and inactive calls. Rule as the data show it: active = growth inhibition above about 70%; inactive = the rest.
ASSAY_METRIC: growth inhibition

Examples with answers:
| COMPOUND | growth inhibition |
| --- | --- |
| COC(COC(=O)N1CCN(C=O)CC1)C1=C(N2CC2)C(=O)C(C)=C(N2CC2)C1=O (stereo not drawn) | -25% (inactive) |
| O=S(=O)(O)/C(=C\c1ccccc1)c1ccccc1 (tested in a mixture with another compound) | -4% (inactive) |

Attention now turns to another entry.
Which growth inhibition is listed for CCOP(=S)(S)OCC.[Pd] ? 95% (active)
